Please respond with reported log10 of IC50 for every item in the list.
system: ISG gene expression induced by MSA-2 in human THP1-Blue-ISG cells; assay: Inhibition of MSA-2-induced ISG gene expression in human THP1-Blue-ISG cells (Quanti-Blue, OD650); assay type: cell-based; conditions: STING agonist MSA-2 10 µM, incubated for 24 hours
Answers are given as log10 of IC50 in nM.

Name the recorded log10 of IC50 for CC1(C)C(=O)N(CC2CN(c3ccsc3)C2)c2cc(C(=O)Nc3c[nH]c4ccccc34)ccc21 [Example I-20] .
2.47

Name the recorded log10 of IC50 for CC1(C)C(=O)N(CC2CC2)c2cc(C(=O)Nc3c[nH]c4ccccc34)ccc21 [Example I-78] .
2.52

Name the recorded log10 of IC50 for CC1(C)C(=O)N(CC2CN(c3ccccc3)C2)c2cc(C(=O)Nc3c[nH]c4ccccc34)ccc21 [Example I-11] .
2.26

Name the recorded log10 of IC50 for O=C(Nc1c[nH]c2ccccc12)c1ccc2c(c1)SCC(=O)N2Cc1ccc2occc2c1 [Example I-65] .
1.76

Name the recorded log10 of IC50 for O=C(Nc1cc2c(s1)SCC(=O)N2Cc1ccccc1)Nc1c[nH]c2ccccc12 [Example I-7] .
2.59

Name the recorded log10 of IC50 for O=C(Nc1c[nH]c2ccccc12)c1ccc2c(c1)N(Cc1cccs1)C(=O)CS2 [Example I-59] .
1.40

Name the recorded log10 of IC50 for O=C(Nc1c[nH]c2ccccc12)c1ccc2c(c1)N(Cc1ccco1)C(=O)CS2 [Example I-60] .
1.62

Name the recorded log10 of IC50 for O=C(Nc1c[nH]c2ccccc12)c1cc2c(s1)SCC(=O)N2Cc1ccccc1 [Example I-6] .
2.59

Name the recorded log10 of IC50 for O=C(Nc1ccc2c(c1)N(CC1CN(c3ccc4c(c3)OCO4)C1)C(=O)CS2)Nc1c[nH]c2ccccc12 [Example I-13] .
2.59

Name the recorded log10 of IC50 for CC1(C)C(=O)N(CCc2ccccc2)c2cc(C(=O)Nc3c[nH]c4ccccc34)ccc21 [Example I-81] .
2.37

Name the recorded log10 of IC50 for O=C(Nc1c[nH]c2ccccc12)c1ccc2c(c1)N(CC1CC1)C(=O)CS2 [Example I-62] .
2.08

Name the recorded log10 of IC50 for CC1(C)C(=O)N(CC2CN(c3cc(F)cc(C(F)(F)F)c3)C2)c2cc(C(=O)Nc3c[nH]c4ccccc34)ccc21 [Example I-17] .
1.51

Name the recorded log10 of IC50 for O=C(Nc1ccc2c(c1)N(Cc1ccccc1)C(=O)CS2)Nc1c[nH]c2ccccc12 [A, reference compound] .
3.36

Name the recorded log10 of IC50 for O=C(Nc1c[nH]c2ccccc12)c1ccc2c(c1)SCC(=O)N2Cc1ccc2c(c1)OCO2 [Example I-66] .
1.86

Name the recorded log10 of IC50 for CC1(C)C(=O)N(Cc2ccsc2)c2cc(C(=O)Nc3c[nH]c4ccccc34)ccc21 [Example I-77] .
2.21

Name the recorded log10 of IC50 for CC1(C)C(=O)N(Cc2ccco2)c2cc(C(=O)Nc3c[nH]c4ccccc34)ccc21 [Example I-80] .
2.80

Name the recorded log10 of IC50 for CC1(C)C(=O)N(Cc2ccccc2)c2cc(C(=O)Nc3c[nH]c4ccccc34)ccc21 [Example I-76] .
2.37
